Biological target: Human adrenergic α2B receptor (Homo sapiens)
Sequence (P18089 whole entry): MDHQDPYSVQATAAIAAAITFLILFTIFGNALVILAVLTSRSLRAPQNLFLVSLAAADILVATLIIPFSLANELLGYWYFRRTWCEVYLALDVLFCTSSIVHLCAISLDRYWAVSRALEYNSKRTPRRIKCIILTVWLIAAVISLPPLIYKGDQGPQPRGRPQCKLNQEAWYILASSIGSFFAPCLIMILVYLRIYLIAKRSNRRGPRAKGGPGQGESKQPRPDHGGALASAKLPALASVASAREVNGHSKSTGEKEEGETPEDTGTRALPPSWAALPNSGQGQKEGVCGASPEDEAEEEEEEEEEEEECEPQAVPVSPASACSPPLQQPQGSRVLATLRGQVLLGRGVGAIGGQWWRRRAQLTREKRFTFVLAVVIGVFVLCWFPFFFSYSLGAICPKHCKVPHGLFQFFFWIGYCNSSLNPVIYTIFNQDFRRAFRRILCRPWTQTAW
Assay: β-Arrestin GPCR functional assay, adrenergic α2B (Protocol B)
Format: cell-based
Conditions: 0.1 μM compound; nor-epinephrine at EC80 (50 nM); read-out: Percentage inhibition, Adrenergic α2B
Description: To evaluate the activity of compounds in β-Arrestin GPCR functional assays, recombinant CHO cell line (DiscoveRX), over expressed with human adrenergic α2B receptor were used. The experiment was done with kit of DiscoveRX as per recommended protocol of the supplier. […] The reading was taken in Envision at luminescence mode. […]
parameter: inhibition at 0.1 µM
Please format your answer as a value with the unit trailing.

Here is how some molecules turned out for inhibition at 0.1 µM.
INSERT INTO results (molecule, target_of_assay, parameter, result) VALUES
  ('Cc1ccc2c(c1)c1c(n2CC(O)c2ccncc2)CC[N+]2([O-])CCCC12 (stereo not shown) [compound 23]', 'Human adrenergic α2B receptor (Homo sapiens)', 'inhibition at 0.1 µM', '27%'),
  ('Cc1cc(C)c2c(c1)c1c(n2CC(C)(O)c2ccncc2)CCN2CCCC12 (single isomer, unassigned) [19a]', 'Human adrenergic α2B receptor (Homo sapiens)', 'inhibition at 0.1 µM', '101%'),
  ('Cc1ccc2c(c1)c1c(n2CC(C)(O)c2ccncc2)CCN2CCCC12 (single isomer, unassigned) [13a]', 'Human adrenergic α2B receptor (Homo sapiens)', 'inhibition at 0.1 µM', '88%');

Turning now to a further molecule:
Input OC(Cn1c2c(c3cc(F)ccc31)C1CCCN1CC2)c1ccncc1 (single isomer, unassigned) [18b] . Output inhibition at 0.1 µM: 103%

* * *

Target: Human adrenergic α1B receptor (Homo sapiens)
Sequence (P35368 whole entry): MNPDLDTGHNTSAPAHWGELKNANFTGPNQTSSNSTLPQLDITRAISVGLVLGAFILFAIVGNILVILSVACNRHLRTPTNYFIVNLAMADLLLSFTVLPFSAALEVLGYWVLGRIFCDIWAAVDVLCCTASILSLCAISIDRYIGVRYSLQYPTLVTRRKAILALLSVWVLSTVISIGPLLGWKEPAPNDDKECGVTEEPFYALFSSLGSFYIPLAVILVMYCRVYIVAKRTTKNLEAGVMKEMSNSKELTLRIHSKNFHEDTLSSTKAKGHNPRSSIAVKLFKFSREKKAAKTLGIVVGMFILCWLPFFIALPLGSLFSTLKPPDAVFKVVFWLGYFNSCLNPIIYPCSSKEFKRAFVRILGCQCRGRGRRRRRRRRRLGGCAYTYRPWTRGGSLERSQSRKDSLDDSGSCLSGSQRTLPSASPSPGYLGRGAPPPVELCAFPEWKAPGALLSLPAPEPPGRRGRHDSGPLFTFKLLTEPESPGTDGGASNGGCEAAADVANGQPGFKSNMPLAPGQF
Assay: β-Arrestin GPCR functional assay, adrenergic α1B (Protocol B)
Assay type: cell-based
Conditions: 0.3 μM compound; nor-epinephrine at EC80 (50 nM); read-out: Percentage inhibition, Adrenergic α1B
Text: To evaluate the activity of compounds in β-Arrestin GPCR functional assays, recombinant CHO cell line (DiscoveRX), over expressed with human adrenergic α1B receptor were used. The experiment was done with a kit of DiscoveRX as per recommended protocol of the supplier. […] The reading was taken in Envision at luminescence mode. […]
parameter: inhibition at 0.3 µM (%)
// return numeric value only (unit: %, not printed)

INSERT INTO assay_data (compound, parameter, measurement_unit, recorded_number) VALUES
  ('Cc1ccc2c(c1)c1c(n2CC(O)c2ccncc2)CC[N+]2([O-])CCCC12 (stereo not shown)', 'inhibition at 0.3 µM', '%', 15),
  ('Cc1ccc2c(c1)c1c(n2CC(C)(O)c2ccncc2)CCN2CCCC12 (single isomer, unassigned) [13a]', 'inhibition at 0.3 µM', '%', 74),
  ('OC(Cn1c2c(c3cc(F)ccc31)C1CCCN1CC2)c1ccncc1 (single isomer, unassigned) [18b]', 'inhibition at 0.3 µM', '%', 46);

Turning now to a further compound:
Value sought: inhibition at 0.3 µM, system Human adrenergic α1B receptor (Homo sapiens), item Cc1ccc2c(c1)c1c(n2CC(O)c2ccncc2F)CCN2CCCC12 (single isomer, unassigned) [14a] . Result: 76

* * *

Molecular target: Human adrenergic α2A receptor (Homo sapiens, UniProt P08913)
Sequence (P08913 1-465): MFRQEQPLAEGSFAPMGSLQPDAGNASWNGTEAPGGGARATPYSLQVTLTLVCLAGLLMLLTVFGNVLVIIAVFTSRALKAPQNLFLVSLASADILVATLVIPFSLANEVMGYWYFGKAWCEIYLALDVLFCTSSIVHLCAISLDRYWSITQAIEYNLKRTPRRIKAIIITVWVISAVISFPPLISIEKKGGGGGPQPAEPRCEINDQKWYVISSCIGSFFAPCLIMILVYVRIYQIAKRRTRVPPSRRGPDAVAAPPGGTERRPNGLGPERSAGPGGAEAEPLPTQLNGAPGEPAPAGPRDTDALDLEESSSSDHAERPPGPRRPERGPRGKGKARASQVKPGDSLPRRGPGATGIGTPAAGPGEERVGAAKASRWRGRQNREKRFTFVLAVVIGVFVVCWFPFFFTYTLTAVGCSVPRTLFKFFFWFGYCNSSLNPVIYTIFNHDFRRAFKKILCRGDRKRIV
Experiment: Radioligand binding, adrenergic α2A (Protocol Group B)
Parameters: purchased Milipore (Millipore)
Details: 0.1 μM compound; Protocol Group B; 0.1 µM
Decide using Percentage inhibition of ligand binding, Adrenergic α2A (0.1 μM): a value greater than or equal to 10% is y, a smaller one is n.

Below are worked cases with known answers.
INSERT INTO assay_data (compound, target_of_assay, class_assignment) VALUES
  ('Cc1ccc2c(c1)c1c(n2CC(C)(O)c2cccnc2)CC2CCCN2C1 (stereo not shown) [41b]', 'Human adrenergic α2A receptor (Homo sapiens, UniProt P08913)', 'n'),
  ('Cc1cc(F)c2c(c1)c1c(n2CC(C)(O)c2cccnc2)CCN2CCCC12 (single isomer, unassigned) [79d]', 'Human adrenergic α2A receptor (Homo sapiens, UniProt P08913)', 'n'),
  ('CC(O)(Cn1c2c(c3cc(F)ccc31)C1CCCN1CC2)c1ccncc1 (single isomer, unassigned) [31b]', 'Human adrenergic α2A receptor (Homo sapiens, UniProt P08913)', 'y'),
  ('Cc1cc(F)cc2c3c(n(CC(O)c4ccncc4)c12)CCN1CCCC31 (single isomer, unassigned) [136c]', 'Human adrenergic α2A receptor (Homo sapiens, UniProt P08913)', 'n'),
  ('Cc1ccc2c(c1)c1c(n2CC(C)(O)c2ccncc2)CC2CCCN2C1 (single isomer, unassigned) [37a]', 'Human adrenergic α2A receptor (Homo sapiens, UniProt P08913)', 'y');

Input line: Could you tell me if the measured Percentage inhibition of ligand binding, Adrenergic α2A (0.1 μM) of CC(O)(Cn1c2c(c3cc(Cl)cc(F)c31)C1CCCN1CC2)c1cccnc1 (single isomer, unassigned) [53b] reaches 10% or more?
Output line: y

Input line: Could you tell me if the measured Percentage inhibition of ligand binding, Adrenergic α2A (0.1 μM) of OC(Cn1c2c(c3cc(F)ccc31)C1CCCN1CC2)c1ccncc1 (single isomer, unassigned) [18c] reaches 10% or more?
Output line: n
